Entries and their selectivity ratio values follow.
assay: Selectivity index, ratio of CC50 for mock-infected human MT4 cells to EC50 for HIV1 RES056 expressing reverse transcriptase K103N + Y181C double mutant; assay type: toxicity, cell-based; conditions: read-out: Ratio CC50/EC50

Consider the worked cases shown below.
Cc1cc(C)c(Oc2cc(NC3CCN(CC(=O)Nc4ccc(C(=O)O)cc4Br)CC3)nc3ncnn23)c(C)c1	< 1
COC(=O)c1ccc(NC(=O)CN2CCC(Nc3cc(Oc4c(C)cc(C)cc4C)n4ncnc4n3)CC2)c(Cl)c1	< 1

Here's the next entry for you.
Query: Given the compound "Cc1ccc(CN2CCC(Nc3cc(Oc4c(C)cc(C)cc4C)n4ncnc4n3)CC2)cc1" , what is its reported selectivity ratio?
Result: < 1

Entry source: ChEMBL document CHEMBL3407432
